Molecular target: MDA-9 PDZ12 tandem domain (PDZ1) (Homo sapiens)
Construct: the MDA-9/Syntenin construct used for the screen contains both PDZ domains; made in house
Sequence (O00560 110-274): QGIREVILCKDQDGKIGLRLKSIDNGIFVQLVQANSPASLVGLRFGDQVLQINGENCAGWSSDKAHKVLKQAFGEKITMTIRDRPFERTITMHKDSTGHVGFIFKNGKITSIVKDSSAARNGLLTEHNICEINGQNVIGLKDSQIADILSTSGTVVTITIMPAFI
Experiment: NMR [15N,1H] HSQC chemical shift change and titration binding
Details: chemical shift change (DPPM) of backbone amide of residue 147, 50 μM PDZ12, compound at 1:1 molar ratio
measured_endpoint: Binding affinity ranking

Solved cases (5 shown):
Cc1cc(=O)n2nc(C(=O)Nc3ccc(N)cc3)nc2[nH]1 : 1 (1 for DPPM 0.00-0.02)
COc1ccc(Br)c(-c2nnc(CCC(=O)Nc3cc(C)c(NC(=O)c4nc5[nH]c6c(c(=O)n5n4)CCC6)cc3C)o2)c1 : 1 (1 for DPPM 0.00-0.02)
Cc1cc(NC(=O)c2nc3[nH]c4c(c(=O)n3n2)CCC4)c(C)cc1NC(=O)Cc1ccc(-c2ccccc2)cc1 : N.B.
Cc1cc(=O)n2nc(CCc3ccccc3)nc2[nH]1 : 3 (3 for DPPM 0.04-0.06)
Cc1c(C)c(NC(=O)c2nc3[nH]c4c(c(=O)n3n2)CCC4)c(C)c(C)c1N : 5 (5 for DPPM 0.08-0.1)

Read the next record carefully.
Q. Sample "Cc1cc(=O)n2nc(C(=O)Nc3cccc(Cl)c3)nc2[nH]1" — what was its Binding affinity ranking?
A. 4 (4 for DPPM 0.06-0.08)
